Target: E. coli TS (thymidylate synthase) (Escherichia coli, UniProt P0A884)
Sequence (P0A884 whole entry): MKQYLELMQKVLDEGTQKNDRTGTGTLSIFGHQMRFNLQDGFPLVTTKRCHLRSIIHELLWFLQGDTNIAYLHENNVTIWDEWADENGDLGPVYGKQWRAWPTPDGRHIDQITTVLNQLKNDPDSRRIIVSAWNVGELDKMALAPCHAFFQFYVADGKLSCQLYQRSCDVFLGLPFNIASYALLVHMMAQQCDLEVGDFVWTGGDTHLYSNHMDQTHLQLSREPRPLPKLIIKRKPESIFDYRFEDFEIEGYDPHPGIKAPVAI
Listing of entries alongside the reported log10 of Ki.
Measurement Kind: log10 of Ki (log10 of the value in µM)

[
  {
    "Compound": "Cc1nc2ccc(C)c(Sc3ccc([N+](=O)[O-])cc3)c2c(=O)[nH]1 [Compound 10A]",
    "log10 of Ki": -0.12
  },
  {
    "Compound": "Cc1cc(Sc2c(C)ccc3nc(C)[nH]c(=O)c23)ccn1 [Compound 12A]",
    "log10 of Ki": -0.26
  },
  {
    "Compound": "COc1ccc(-c2cncn2Cc2cccc3nc(C)[nH]c(=O)c23)cc1 [Compound 33A]",
    "log10 of Ki": 1.56
  },
  {
    "Compound": "COc1cc(Sc2c(C)ccc3nc(C)[nH]c(=O)c23)ccn1 [Compound 16A]",
    "log10 of Ki": -0.12
  },
  {
    "Compound": "Cc1nc2cccc(Sc3ccncc3)c2c(=O)[nH]1 [Compound 7A]",
    "log10 of Ki": 1.58
  },
  {
    "Compound": "Cc1nc2ccc(C)c(Sc3nnc(C)s3)c2c(=O)[nH]1 [Compound 11A]",
    "log10 of Ki": 1.32
  }
]
